- targetOrTestSystem: COX-2 (Homo sapiens)
- Construct: incubation of human whole blood with LPS, which induces COX-2; endogenous in cells; host or cells: heparinized fresh whole blood of human volunteers, incubated with LPS for 24 h
- Sequence (P35354 18-604): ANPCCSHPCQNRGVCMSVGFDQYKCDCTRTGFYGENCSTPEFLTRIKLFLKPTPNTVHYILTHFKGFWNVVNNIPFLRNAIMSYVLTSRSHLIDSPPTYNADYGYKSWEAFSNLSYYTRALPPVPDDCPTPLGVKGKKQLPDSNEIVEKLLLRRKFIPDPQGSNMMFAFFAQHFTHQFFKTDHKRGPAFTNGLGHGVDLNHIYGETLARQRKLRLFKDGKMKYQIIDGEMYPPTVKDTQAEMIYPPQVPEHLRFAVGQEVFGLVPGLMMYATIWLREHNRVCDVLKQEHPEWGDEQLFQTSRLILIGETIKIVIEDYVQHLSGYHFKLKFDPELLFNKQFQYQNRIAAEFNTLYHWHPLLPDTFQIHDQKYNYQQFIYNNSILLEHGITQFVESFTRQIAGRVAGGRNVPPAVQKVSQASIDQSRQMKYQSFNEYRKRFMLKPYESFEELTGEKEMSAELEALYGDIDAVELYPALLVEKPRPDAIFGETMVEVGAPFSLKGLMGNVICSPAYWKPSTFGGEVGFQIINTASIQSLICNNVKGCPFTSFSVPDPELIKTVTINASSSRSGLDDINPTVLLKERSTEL
- protocol: Whole cell assay for COX-2 using CHO transfected cell line CHO[hCOX-2], inhibition of PGE2 synthesis
- Assay type: cell-based
- measurementConditions: CHO[hCOX-2] cells, 10 μM AA, PGE2; read-out: COX-2 (IC50 mM) CHO
Please go through the items and note down their IC50.
Answers are plain numbers, in nM.

compound="CS(=O)(=O)c1ccc(-c2cc(C(F)(F)F)cnc2N2CCC(F)(F)CC2)cc1 [Example 24]" targetortestsystem="COX-2 (Homo sapiens)" displayunit=nM reportedmeasurement=20
compound="CS(=O)(=O)c1ccc(-c2cc(C(F)(F)F)cnc2N2CCCC(=O)C2)cc1 [Example 21]" targetortestsystem="COX-2 (Homo sapiens)" displayunit=nM reportedmeasurement=110
compound="CS(=O)(=O)c1ccc(-c2cc(C(F)(F)F)cnc2N2CCC(F)CC2)cc1 [Example 26]" targetortestsystem="COX-2 (Homo sapiens)" displayunit=nM reportedmeasurement=10

Take each entry in turn and give its IC50.
1. CC1(CO)CCCN(c2ncc(C(F)(F)F)cc2-c2ccc(S(C)(=O)=O)cc2)C1 (stereo not shown) [Example 17]
2. CS(=O)(=O)c1ccc(-c2cc(C(F)(F)F)cnc2N2CCCCC2)cc1 [Example 2]
3. COC[C@@H]1CCCN1c1ncc(C(F)(F)F)cc1-c1ccc(S(C)(=O)=O)cc1 [Example 10]

400
4
90

Origin of measurements: patent US6004950A
